- assayDetails: HDN33 neuroblastoma growth inhibition, cell-based, chromothripsis tumors, cisplatin or BGB combos (AID 1671450);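 further: cells exposed to compound for four days; 0% = vehicle DMSO and 100% = cell killing by high DMSO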
- conditionParameters: HDN33 neuroblastoma cells, measured here: with BGB IC20 combination, at 0.5 µM, stronger effect = higher value
inhibition values by entry
Dear colleague, please return just the value in %, with no unit written.

- compound: "NC(=O)c1ncn(C2OC(CO)C(O)C2O)n1 (stereo not given)"
  inhibition [%]: 6.96

// lookup inhibition for `O=c1[nH]c(-c2ccc(C(F)(F)F)cc2)nc2c1CSCC2`
-5.54

Consider the compound shown here: `O=c1cc(-c2cccc3c2Sc2ccccc2S3)oc(N2CCOCC2)c1` What is its recorded inhibition?
-21.1

GET /values?readout=inhibition&item= `O=C(Nc1ccccc1)c1ccccc1O`
4

Data request, read-out inhibition, for `Cc1c(-c2cnccn2)ssc1=S`
-31.4

====

# inhibition values compiled below
- testTarget: Single-stranded DNA-binding protein (Escherichia coli (strain K12)) (UniProt P0AGE0)
- assayDetails: E. coli SSB displacement from DNA, counter-screen for HCV NS3 helicase inhibitor project, biochemical, fluorescence polarization, NIH Clinical Collection (AID 743271)
- conditionParameters: stronger effect = higher value, concentration not given here
Hi! Could you send only the number? It should be in %, unit omitted.

The examples below pair each entry with its known result.
- compound: "O=C1N[C@H](C(=O)O)CS1"
  inhibition, %: -3.18
- compound: "Cc1cc(=O)oc2cc(NC(=O)C3CCC(=O)N3)ccc12 (stereo not given)"
  inhibition, %: 11.7
- compound: "C=C1/C(=C\\C=C2/CCC[C@]3(C)[C@@H]([C@H](C)/C=C/[C@@H](O)C4CC4)CC[C@@H]23)C[C@@H](O)C[C@@H]1O"
  inhibition, %: 2.98
- compound: "CC(=O)NCCCCCCNC(C)=O"
  inhibition, %: -3.18

Pending compound:
GET /values?readout=inhibition&system=Single-stranded DNA-binding protein (Escherichia coli (strain K12)) (UniProt P0AGE0)&item= CC1CNc2c(cccc2S(=O)(=O)N[C@@H](CCCN=C(N)N)C(=O)N2CC[C@@H](C)C[C@@H]2C(=O)O)C1 (stereo not given in full)
-0.1

====

- assayDetails: ovarian cancer cell viability with rucaparib, profiling panel, oncology-focused library, rucaparib conditional (AID 1508598)
- conditionParameters: patient-derived ovarian cancer cells, CellTiter-Glo viability, 144 h; at 0.313 µM; OCI-C5x cells; with rucaparib 10 µM; stronger effect = lower value; 100% = cells with rucaparib alone
valueKind: viability (%)
Output spec: scalar in %, unitless text.

# annotated cases, reported viability shown
- structure: "Cc1ccc(S(=O)(=O)/C=C/C#N)cc1"
  valueKind: "viability"
  unitAnnotation: "%"
  measValue: 115
- structure: "Nc1nc(F)nc2c1ncn2[C@@H]1O[C@H](COP(=O)(O)O)[C@@H](O)[C@@H]1O"
  valueKind: "viability"
  unitAnnotation: "%"
  measValue: 87.1
- structure: "CC(C)c1onc(-c2c(Cl)cccc2Cl)c1COc1ccc(/C=C/c2cccc(C(=O)O)c2)c(Cl)c1"
  valueKind: "viability"
  unitAnnotation: "%"
  measValue: 97.6
- structure: "O=C(c1ccc(OCCN2CCCCC2)cc1)c1c(-c2ccc(O)cc2)sc2cc(O)ccc12"
  valueKind: "viability"
  unitAnnotation: "%"
  measValue: 114

Turning now to a further compound:
Given `Nc1nc(Cl)nc2c1ncn2[C@H]1C[C@H](O)[C@@H](CO)O1` , state its recorded viability.
112
